Data origin, for the record: ChEMBL document CHEMBL1154674

tested on: Stomach; assay: Biodistribution in NMRI mouse stomach at 3.7 MBq/mL, iv after 60 mins by gamma counting; assay type: ADME, organism-based; conditions: in vivo, 1 h
Readout Type: Drug uptake (%)

Below, 3 compounds whose answers are already recorded.
[11CH3]Nc1ccc(-c2nc3ccc(O)cc3s2)cc1 : 0.3
Cc1ccc2nc(-c3ccc([18F])cc3)sc2c1 : 1.1
CNc1ccc2nc(-c3ccc([18F])cc3)sc2c1 : 1.6

1. CN(C)c1ccc2nc(-c3ccc([18F])cc3)sc2c1
2. Nc1ccc2nc(-c3ccc([18F])cc3)sc2c1
QUERY: // compare measured Drug uptake between 1 and 2 ; output the lower one Identify your selection by its label.
RESULT: 2
(2: 0.6%, 1: 1.2%)

###

system: Blood; experiment: Drug level in NMRI mouse blood assessed as standard uptake value at 3.7 MBq/mL, iv after 60 mins by gamma counting; type: ADME, organism-based; details: in vivo, 1 h
Readout Type: SUV

Cc1ccc2nc(-c3ccc([18F])cc3)sc2c1 : 0.4
CN(C)c1ccc2nc(-c3ccc([18F])cc3)sc2c1 : 0.3
[11CH3]Nc1ccc(-c2nc3ccc(O)cc3s2)cc1 : 0.4

1. CNc1ccc2nc(-c3ccc([18F])cc3)sc2c1
2. Nc1ccc2nc(-c3ccc([18F])cc3)sc2c1
QUERY: // compare measured SUV between 1 and 2 ; output the lower one Identify your selection by its label.
RESULT: 2

###

test: Biodistribution in NMRI mouse spleen/pancreas at 3.7 MBq/mL, iv after 60 mins by gamma counting; type: ADME, organism-based; settings: in vivo, 1 h
Readout Type: Drug uptake (%)

Below, 3 molecules whose answers are already recorded.
CNc1ccc2nc(-c3ccc([18F])cc3)sc2c1 : 0.3
Nc1ccc2nc(-c3ccc([18F])cc3)sc2c1 : 0.3
Cc1ccc2nc(-c3ccc([18F])cc3)sc2c1 : 0.1

1. CN(C)c1ccc2nc(-c3ccc([18F])cc3)sc2c1
2. [11CH3]Nc1ccc(-c2nc3ccc(O)cc3s2)cc1
QUERY: Select one: 1 or 2 . Criterion: greater recorded Drug uptake. Identify your selection by its label.
RESULT: 1
(1: 0.3%, 2: 0.1%)

###

system: Liver; assay: Biodistribution in NMRI mouse liver assessed per gram of tissue at 3.7 MBq/mL, iv after 2 mins by gamma counting; type: ADME, organism-based; conditions: in vivo
Readout Type: Drug uptake (%)

CN(C)c1ccc2nc(-c3ccc([18F])cc3)sc2c1 : 18.9

P. Cc1ccc2nc(-c3ccc([18F])cc3)sc2c1
Q. Nc1ccc2nc(-c3ccc([18F])cc3)sc2c1
R. [11CH3]Nc1ccc(-c2nc3ccc(O)cc3s2)cc1
QUERY: Ordering: ascending Drug uptake. Please list the labels in the order you were asked to rank them.
RESULT: R, P, Q

###

tested on: Blood; assay: Biodistribution in NMRI mouse blood assessed per gram of tissue at 3.7 MBq/mL, iv after 60 mins by gamma counting; assay type: ADME, organism-based; details: in vivo, 1 h
Readout Type: Drug uptake (%)

Below, 3 compounds whose answers are already recorded.
Cc1ccc2nc(-c3ccc([18F])cc3)sc2c1 : 1.1
[11CH3]Nc1ccc(-c2nc3ccc(O)cc3s2)cc1 : 1.1
CN(C)c1ccc2nc(-c3ccc([18F])cc3)sc2c1 : 0.9

a. CNc1ccc2nc(-c3ccc([18F])cc3)sc2c1
b. Nc1ccc2nc(-c3ccc([18F])cc3)sc2c1
QUERY: Select one: a or b . Criterion: greater recorded Drug uptake. Identify your selection by its label.
RESULT: a
